ASSAY_INFO: Estimated solubility of HM30181 mesylate Type A starting material in solvents (stepwise solvent addition)
Type: physicochemical
TEST_CONTEXT: organic solvent or mixture, thermodynamic from solid; solvent EtOH
EXPERIMENTAL_ENDPOINT: solubility

solubility recorded for this molecule, COc1cc2c(cc1OC)CN(CCc1ccc(-n3nnc(-c4cc(OC)c(OC)cc4NC(=O)c4cc(=O)c5ccccc5o4)n3)cc1)CC2.CS(=O)(=O)O [HM30181 mesylate Type A, HM30181 mesylate] , is < 0.9 mg/mL

* * *

ASSAY_INFO: Estimated solubility of HM30181 mesylate Type A starting material in solvents (stepwise solvent addition)
Type: physicochemical
TEST_CONTEXT: organic solvent or mixture, thermodynamic from solid; solvent DCM
EXPERIMENTAL_ENDPOINT: solubility

solubility recorded for this molecule, COc1cc2c(cc1OC)CN(CCc1ccc(-n3nnc(-c4cc(OC)c(OC)cc4NC(=O)c4cc(=O)c5ccccc5o4)n3)cc1)CC2.CS(=O)(=O)O [HM30181 mesylate Type A, HM30181 mesylate] , is < 1000 µg/mL
